Test system: HEK293
Assay: cells
Format: functional
Conditions: Homo sapiens, ATCC CRL1573, HEK293; ASSAY_TEST Inhibition of Cell Viability; detection method Resazurin; Fluorescence (ex560/em590); MEDIA DMEM with 10% FBS; plate type 384well; TC; CORNING #3712; time 18 hr
Collected CC50 values appear next to each entry.

Some solved entries appear below for comparison.
# COMPOUND, CC50
data = [
    ("Cc1cnc(SCc2ccc(Cl)cc2Cl)nc1O", "> 10 µM"),
    ("C=C(C)C(=O)Oc1ccc(/N=N/c2ccc(C)cc2)ccc1=O", "> 10 µM"),
    ("Cc1ccnc(NC(c2ccccc2)c2ccc3cccnc3c2O)c1 (centres undefined)", "> 10 µM"),
]

compound O=C1C=C(c2ccccc2)OC(=O)C1C(=O)c1ccccc1 (centres undefined) , CC50 observed: > 10 µM
